Below, each entry is listed with its recorded MIC.
# System: A. baumannii (HUMC1 strain)
# RUN_DESCRIPTION: MIC by broth microdilution, A. baumannii (RPMI + 10% FCS)
# Type: cell-based
# RUN_CONDITIONS: Acinetobacter baumannii; HUMC1 strain; RPMI medium + 10% FCS; 35° C., 20 hours; read-out: MIC A. baumannii
QUANTITY_NAME: MIC

[
  {
    "STRUCTURE": "CO[C@H]1/C=C/O[C@@]2(C)Oc3c(C)c(O)c4c(c3C2=O)C2=NC3(CCN(CC(C)C)CC3)NC2=C(NC(=O)/C(C)=C\\C=C\\[C@H](C)[C@H](O)[C@@H](C)[C@@H](O)[C@@H](C)[C@H](OC(=O)N2CCN(Cc3c(C)noc3C)CC2)[C@@H]1C)C4=O",
    "OBSERVED_RESULT": "≤ 0.016 µg/mL"
  },
  {
    "STRUCTURE": "CO[C@H]1/C=C/O[C@@]2(C)Oc3c(C)c(O)c4c(c3C2=O)C2=NC3(CCN(CC(C)C)CC3)NC2=C(NC(=O)/C(C)=C\\C=C\\[C@H](C)[C@H](O)[C@@H](C)[C@@H](O)[C@@H](C)[C@H](OC(=O)N2CCOC3(CCN(C)CC3)C2)[C@@H]1C)C4=O",
    "OBSERVED_RESULT": "≤ 0.016 µg/mL"
  }
]

###

# System: A. baumannii (HUMC1 strain)
# RUN_DESCRIPTION: MIC by broth microdilution, A. baumannii (RPMI + 10% FCS)
# Format: cell-based
# RUN_CONDITIONS: Acinetobacter baumannii; HUMC1 strain; RPMI medium + 10% FCS; 35° C., 20 hours; read-out: MIC A. baumannii
# Description: MIC values were determined by broth microdilution method according to the CLSI guidelines with the following exceptions: MIC against A. baumannii was performed in RPMI medium supplemented with 10% FCS and MIC against M. abscessus was performed in Middlebrook 7H9 broth supplemented with Middlebrook ADC growth supplement (10%; see column “M. abscessus 7H9”). […]
QUANTITY_NAME: log10 MIC (log10 of the value in mg/L)

[
  {
    "STRUCTURE": "CO[C@H]1/C=C/O[C@@]2(C)Oc3c(C)c(O)c4c(c3C2=O)C2=NC3(CCN(CC(C)C)CC3)NC2=C(NC(=O)/C(C)=C\\C=C\\[C@H](C)[C@H](O)[C@@H](C)[C@@H](O)[C@@H](C)[C@H](OC(=O)N2CC3(CCN(CC5CCCCC5)CC3)C2)[C@@H]1C)C4=O",
    "TARGET_DESC": "A. baumannii (HUMC1 strain)",
    "OBSERVED_RESULT": -2.40
  },
  {
    "STRUCTURE": "CO[C@H]1/C=C/O[C@@]2(C)Oc3c(C)c(O)c4c(c3C2=O)C2=NC3(CCN(CC(C)C)CC3)NC2=C(NC(=O)/C(C)=C\\C=C\\[C@H](C)[C@H](O)[C@@H](C)[C@@H](O)[C@@H](C)[C@H](OC(=O)N2CCC(c3ccccc3)CC2)[C@@H]1C)C4=O",
    "TARGET_DESC": "A. baumannii (HUMC1 strain)",
    "OBSERVED_RESULT": -0.60
  },
  {
    "STRUCTURE": "CO[C@H]1/C=C/O[C@@]2(C)Oc3c(C)c(O)c4c(c3C2=O)C2=NC3(CCN(CC(C)C)CC3)NC2=C(NC(=O)/C(C)=C\\C=C\\[C@H](C)[C@H](O)[C@@H](C)[C@@H](O)[C@@H](C)[C@H](OC(=O)N2CCC(c3ccncc3)CC2)[C@@H]1C)C4=O",
    "TARGET_DESC": "A. baumannii (HUMC1 strain)",
    "OBSERVED_RESULT": -1.80
  },
  {
    "STRUCTURE": "CO[C@H]1/C=C/O[C@@]2(C)Oc3c(C)c(O)c4c(c3C2=O)C2=NC3(CCN(CC(C)C)CC3)NC2=C(NC(=O)/C(C)=C\\C=C\\[C@H](C)[C@H](O)[C@@H](C)[C@@H](O)[C@@H](C)[C@H](OC(=O)N2CCN(CCC(C)C)CC2)[C@@H]1C)C4=O",
    "TARGET_DESC": "A. baumannii (HUMC1 strain)",
    "OBSERVED_RESULT": -1.22
  },
  {
    "STRUCTURE": "CO[C@H]1/C=C/O[C@@]2(C)Oc3c(C)c(O)c4c(c3C2=O)C2=NC3(CCN(CC(C)C)CC3)NC2=C(NC(=O)/C(C)=C\\C=C\\[C@H](C)[C@H](O)[C@@H](C)[C@@H](O)[C@@H](C)[C@H](OC(=O)N2CCN(CC3CCCCC3)CC2)[C@@H]1C)C4=O",
    "TARGET_DESC": "A. baumannii (HUMC1 strain)",
    "OBSERVED_RESULT": -0.30
  },
  {
    "STRUCTURE": "CO[C@H]1/C=C/O[C@@]2(C)Oc3c(C)c(O)c4c(c3C2=O)C2=NC3(CCN(CC(C)C)CC3)NC2=C(NC(=O)/C(C)=C\\C=C\\[C@H](C)[C@H](O)[C@@H](C)[C@@H](O)[C@@H](C)[C@H](OC(=O)N2CCN(c3ccccn3)CC2)[C@@H]1C)C4=O",
    "TARGET_DESC": "A. baumannii (HUMC1 strain)",
    "OBSERVED_RESULT": -0.60
  }
]

###

# System: M. abscessus (ATCC 19977)
# RUN_DESCRIPTION: MIC by broth microdilution, M. abscessus in cation adjusted Mueller Hinton broth
# Format: cell-based
# RUN_CONDITIONS: Mycobacteroides abscessus, ATCC19977, 96 h; ATCC 19977; cation adjusted Mueller Hinton broth without growth supplement; 30° C., 4 days; read-out: MIC M. abscessus MH
QUANTITY_NAME: MIC (µg/mL)

[
  {
    "COMPOUND": "CO[C@H]1/C=C/O[C@@]2(C)Oc3c(C)c(O)c4c(c3C2=O)C2=NC3(CCN(CC(C)C)CC3)NC2=C(NC(=O)/C(C)=C\\C=C\\[C@H](C)[C@H](O)[C@@H](C)[C@@H](O)[C@@H](C)[C@H](OC(=O)N2CC3CC2CN3Cc2ccccc2)[C@@H]1C)C4=O [Compound 32]",
    "OBSERVED_RESULT": 0.5
  },
  {
    "COMPOUND": "CCN1CCC2(CC1)CCN(C(=O)O[C@H]1[C@H](C)[C@H](O)[C@H](C)[C@@H](O)[C@@H](C)/C=C/C=C(/C)C(=O)NC3=C4NC5(CCN(CC(C)C)CC5)N=C4c4c(c(O)c(C)c5c4C(=O)[C@@](C)(O/C=C/[C@H](OC)[C@H]1C)O5)C3=O)CC2 [Compound 68]",
    "OBSERVED_RESULT": 1
  }
]

###

Below, each entry is listed with its recorded MIC.
# System: A. baumannii (HUMC1 strain)
# RUN_DESCRIPTION: MIC by broth microdilution, A. baumannii (RPMI + 10% FCS)
# Format: cell-based
# RUN_CONDITIONS: Acinetobacter baumannii; HUMC1 strain; RPMI medium + 10% FCS; 35° C., 20 hours; read-out: MIC A. baumannii

[
  {
    "STRUCTURE": "CO[C@H]1/C=C/O[C@@]2(C)Oc3c(C)c(O)c4c(c3C2=O)C2=NC3(CCN(CC(C)C)CC3)NC2=C(NC(=O)/C(C)=C\\C=C\\[C@H](C)[C@H](O)[C@@H](C)[C@@H](O)[C@@H](C)[C@H](OC(=O)N2CCN(c3ccccc3)CC2)[C@@H]1C)C4=O",
    "TARGET_DESC": "A. baumannii (HUMC1 strain)",
    "MIC": "0.125 µg/mL"
  },
  {
    "STRUCTURE": "CO[C@H]1/C=C/O[C@@]2(C)Oc3c(C)c(O)c4c(c3C2=O)C2=NC3(CCN(CC(C)C)CC3)NC2=C(NC(=O)/C(C)=C\\C=C\\[C@H](C)[C@H](O)[C@@H](C)[C@@H](O)[C@@H](C)[C@H](OC(=O)N2CCC3(CCN(C)CC3)CC2)[C@@H]1C)C4=O",
    "TARGET_DESC": "A. baumannii (HUMC1 strain)",
    "MIC": "≤ 0.016 µg/mL"
  },
  {
    "STRUCTURE": "CCN1CCC(NC(=O)O[C@H]2[C@H](C)[C@H](O)[C@H](C)[C@@H](O)[C@@H](C)/C=C/C=C(/C)C(=O)NC3=C4NC5(CCN(CC(C)C)CC5)N=C4c4c(c(O)c(C)c5c4C(=O)[C@@](C)(O/C=C/[C@H](OC)[C@H]2C)O5)C3=O)CC1",
    "TARGET_DESC": "A. baumannii (HUMC1 strain)",
    "MIC": "≤ 0.001 µg/mL"
  },
  {
    "STRUCTURE": "CO[C@H]1/C=C/O[C@@]2(C)Oc3c(C)c(O)c4c(c3C2=O)C2=NC3(CCN(CC(C)C)CC3)NC2=C(NC(=O)/C(C)=C\\C=C\\[C@H](C)[C@H](O)[C@@H](C)[C@@H](O)[C@@H](C)[C@H](OC(=O)N2CCN(C3CCCCC3)CC2)[C@@H]1C)C4=O",
    "TARGET_DESC": "A. baumannii (HUMC1 strain)",
    "MIC": "0.06 µg/mL"
  },
  {
    "STRUCTURE": "CO[C@H]1/C=C/O[C@@]2(C)Oc3c(C)c(O)c4c(c3C2=O)C2=NC3(CCN(CC(C)C)CC3)NC2=C(NC(=O)/C(C)=C\\C=C\\[C@H](C)[C@H](O)[C@@H](C)[C@@H](O)[C@@H](C)[C@H](OC(=O)N2CCC(NC(C)C)CC2)[C@@H]1C)C4=O",
    "TARGET_DESC": "A. baumannii (HUMC1 strain)",
    "MIC": "≤ 0.016 µg/mL"
  },
  {
    "STRUCTURE": "CCCCN1CCN(C(=O)O[C@H]2[C@H](C)[C@H](O)[C@H](C)[C@@H](O)[C@@H](C)/C=C/C=C(/C)C(=O)NC3=C4NC5(CCN(CC(C)C)CC5)N=C4c4c(c(O)c(C)c5c4C(=O)[C@@](C)(O/C=C/[C@H](OC)[C@H]2C)O5)C3=O)CC1",
    "TARGET_DESC": "A. baumannii (HUMC1 strain)",
    "MIC": "0.03 µg/mL"
  },
  {
    "STRUCTURE": "CO[C@H]1/C=C/O[C@@]2(C)Oc3c(C)c(O)c4c(c3C2=O)C2=NC3(CCN(CC(C)C)CC3)NC2=C(NC(=O)/C(C)=C\\C=C\\[C@H](C)[C@H](O)[C@@H](C)[C@@H](O)[C@@H](C)[C@H](OC(=O)N2C[C@H]3CN(CC5CCCCC5)C[C@H]3C2)[C@@H]1C)C4=O",
    "TARGET_DESC": "A. baumannii (HUMC1 strain)",
    "MIC": "0.06 µg/mL"
  }
]

Values were extracted from patent US20260234161A1.
